tested on: Neisseria gonorrhoeae; experiment: EC50 determination: plate-based broth growth assay (absorbance at 600 nm) of Neisseria gonorrhoeae; assay type: cell-based; conditions: absorbance 600 nm after 20 hours at 37° C./5% CO2, read-out: IC50 (Inhibitory concentration) against Neisseria gonorrhoeae
pIC50: −log10 of the molar value.
Listed here are compounds together with their documented pIC50.

Answered cases to consult:
Request: Hello, please tell me recorded pIC50 for this one: `COC(=O)c1ccc2nc(Nc3nnco3)oc2c1`
Response: ≥ 6.00

Request: Hello, please tell me recorded pIC50 for this one: `Cc1sc(Nc2nc3cc(C(F)(F)F)ccc3o2)nc1C(=O)NC1CC1`
Response: ≥ 6.00

Request: Hello, please tell me recorded pIC50 for this one: `O=C(Nc1ccnc(F)c1)c1csc(Nc2nc3cc(C(F)(F)F)ccc3o2)n1`
Response: ≥ 7.00

---
Request: Hello, please tell me recorded pIC50 for this one: `FC(F)(F)c1ccc2oc(Nc3nncs3)nc2c1`
Response: ≥ 6.00

Data origin: patent US20190194179A1
